Assay: In-vivo pharmacokinetic experiment in male beagles
Parameters: species or system dog
Conditions: male, dog, plasma; beagle, intravenous injection 1.0 mg/kg; read-out: Vss
Experimental Readout: Vd (L/kg)
Kindly provide the numeric value in L/kg only, without the unit symbol.

Prompt: Need Vd of CC1(C)CC[C@H](Nc2ncc(C(F)(F)F)c(-c3c[nH]c4c(P(C)(C)=O)c(C#N)ccc34)n2)CN1 [Compound 101, reference compound] , thanks.
Completion: 7.57

====

# Lookup of reported pKi keyed by entry
Biological target: CDK12/Cyclin K (Homo sapiens (Human), UniProt Q9NYV4)
Sequence (Q9NYV4 whole entry): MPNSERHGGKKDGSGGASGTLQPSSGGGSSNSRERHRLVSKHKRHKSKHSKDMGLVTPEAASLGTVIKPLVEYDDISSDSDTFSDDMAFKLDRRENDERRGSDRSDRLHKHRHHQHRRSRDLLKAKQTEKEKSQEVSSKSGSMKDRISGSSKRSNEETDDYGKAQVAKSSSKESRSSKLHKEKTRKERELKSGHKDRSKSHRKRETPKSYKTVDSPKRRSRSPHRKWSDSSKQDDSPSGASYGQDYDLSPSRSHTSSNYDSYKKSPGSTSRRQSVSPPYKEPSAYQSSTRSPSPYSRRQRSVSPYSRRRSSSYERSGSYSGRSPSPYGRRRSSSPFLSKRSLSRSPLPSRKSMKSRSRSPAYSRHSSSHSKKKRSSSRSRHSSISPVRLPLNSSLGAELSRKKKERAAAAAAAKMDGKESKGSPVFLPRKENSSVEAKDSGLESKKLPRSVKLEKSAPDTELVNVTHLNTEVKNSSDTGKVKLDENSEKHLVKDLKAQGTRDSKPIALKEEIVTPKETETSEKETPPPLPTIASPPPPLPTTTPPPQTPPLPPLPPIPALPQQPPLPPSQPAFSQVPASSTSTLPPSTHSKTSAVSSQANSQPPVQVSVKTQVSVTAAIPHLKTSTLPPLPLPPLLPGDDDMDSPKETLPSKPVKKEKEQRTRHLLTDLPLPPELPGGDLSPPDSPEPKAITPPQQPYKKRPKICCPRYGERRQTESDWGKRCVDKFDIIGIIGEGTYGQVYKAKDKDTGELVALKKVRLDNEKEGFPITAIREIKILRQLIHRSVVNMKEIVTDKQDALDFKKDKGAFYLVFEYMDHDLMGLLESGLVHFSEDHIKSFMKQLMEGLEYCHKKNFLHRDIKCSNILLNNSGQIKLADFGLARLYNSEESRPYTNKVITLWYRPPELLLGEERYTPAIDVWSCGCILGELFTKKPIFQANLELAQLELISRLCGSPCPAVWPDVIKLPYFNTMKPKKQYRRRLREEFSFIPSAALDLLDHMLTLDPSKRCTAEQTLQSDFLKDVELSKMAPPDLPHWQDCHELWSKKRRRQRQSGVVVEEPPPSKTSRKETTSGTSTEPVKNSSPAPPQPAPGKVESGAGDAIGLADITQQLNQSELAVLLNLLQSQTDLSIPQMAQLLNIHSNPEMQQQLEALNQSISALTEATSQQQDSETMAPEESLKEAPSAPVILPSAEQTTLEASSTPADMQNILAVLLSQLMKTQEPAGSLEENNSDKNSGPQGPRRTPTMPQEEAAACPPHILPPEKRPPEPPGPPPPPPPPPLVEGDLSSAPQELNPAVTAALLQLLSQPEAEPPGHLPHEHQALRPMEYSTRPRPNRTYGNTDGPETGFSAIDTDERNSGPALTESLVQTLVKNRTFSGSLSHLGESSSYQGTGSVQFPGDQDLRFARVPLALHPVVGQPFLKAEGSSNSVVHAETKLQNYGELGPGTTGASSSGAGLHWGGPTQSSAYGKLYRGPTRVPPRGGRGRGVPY
Sequence (O75909 whole entry partner): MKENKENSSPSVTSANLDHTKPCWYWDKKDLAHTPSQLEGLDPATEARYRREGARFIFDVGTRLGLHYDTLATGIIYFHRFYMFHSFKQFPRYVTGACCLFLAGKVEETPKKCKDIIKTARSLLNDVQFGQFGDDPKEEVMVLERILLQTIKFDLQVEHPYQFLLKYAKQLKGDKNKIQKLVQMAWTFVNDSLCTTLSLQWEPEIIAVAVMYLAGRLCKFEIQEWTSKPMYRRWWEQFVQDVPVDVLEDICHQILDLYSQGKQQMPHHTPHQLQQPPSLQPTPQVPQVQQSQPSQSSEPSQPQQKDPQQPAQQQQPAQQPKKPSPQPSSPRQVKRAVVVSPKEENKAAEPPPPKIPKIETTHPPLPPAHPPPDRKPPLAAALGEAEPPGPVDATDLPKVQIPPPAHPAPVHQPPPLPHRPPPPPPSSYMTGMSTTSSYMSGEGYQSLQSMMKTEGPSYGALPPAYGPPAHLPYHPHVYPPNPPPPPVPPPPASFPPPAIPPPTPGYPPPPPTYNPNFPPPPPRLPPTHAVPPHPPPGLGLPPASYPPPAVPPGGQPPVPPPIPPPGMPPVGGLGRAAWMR
Assay: In-vitro inhibition of CDK12/Cyclin K kinase activity (Caliper mobility shift)
Conditions: Ki calculated from IC50 under Km ATP condition (Cheng and Prusoff)
Note: pKi values are expressed as the negative base-10 logarithm of concentration in M.

# annotated cases, reported pKi shown
O=C1NCCOCCN2CC[C@@H](C2)Nc2ncc(C(F)(F)F)c(n2)-c2c[nH]c3cc1ccc23 [Compound Z1] | 7.20
CN1C[C@@H](F)CCN(C)[C@H]2CC[C@@H](C2)Nc2ncc(C(F)(F)F)c(n2)-c2c[nH]c3c(P(C)(C)=O)c(ccc23)C1=O [Compound Z79] | 7.03

Prompt: Need pKi of CP(C)(=O)c1c2ccc3c(c[nH]c13)-c1nc(ncc1C(F)(F)F)N[C@H]1CC[C@@H](C1)NCCOCCNC2=O [Compound Z7] , thanks.
Completion: 7.21

Prompt: Need pKi of CP(C)(=O)c1c2ccc3c(c[nH]c13)-c1nc(ncc1C(F)(F)F)N[C@H]1CC[C@@H](C1)NCCCCNC2=O [Compound Z5] , thanks.
Completion: 7.58

====

Test: In-vivo pharmacokinetic experiment in male beagles
Parameters: species or system dog
Conditions: male, dog, plasma; beagle, intravenous injection 1.0 mg/kg
Source text: […]
Experimental Readout: AUC(0-inf) (ng·h/mL)
Kindly provide the numeric value in ng·h/mL only, without the unit symbol.

Prompt: Need AUC(0-inf) of CC1(C)CC[C@H](Nc2ncc(C(F)(F)F)c(-c3c[nH]c4c(P(C)(C)=O)c(C#N)ccc34)n2)CN1 [Compound 101, reference compound] , thanks.
Completion: 1230

====

Molecular target: CDK2/Cyclin E1 (Homo sapiens (Human), UniProt P24941)
Experiment: In-vitro inhibition of CDK2/Cyclin E1 kinase activity (Caliper mobility shift)
Conditions: Ki calculated from IC50 under Km ATP condition (Cheng and Prusoff)
Procedure: […] This experiment was used for determining the inhibition of the activities of CDK2, CDK7, CDK9 and CDK12 kinases by the compound. The kinase reaction carried out by the present invention was measured in a 384-well plate, the final measured volume was 16 μl, and the reaction temperature was 27° C. The concentrations of the kinases were determined by optimization experiment. […]
Experimental Readout: pKi
Note: pKi values are expressed as the negative base-10 logarithm of concentration in M.

CP(C)(=O)c1c2ccc3c(c[nH]c13)-c1nc(ncc1C(F)(F)F)N[C@H]1CC[C@@H](C1)NCCCCNC2=O | 7.59
O=C1NCCOCCN2CC[C@@H](C2)Nc2ncc(C(F)(F)F)c(n2)-c2c[nH]c3cc1ccc23 | 6.81
CN1C[C@@H](F)CCN(C)[C@H]2CC[C@@H](C2)Nc2ncc(C(F)(F)F)c(n2)-c2c[nH]c3c(P(C)(C)=O)c(ccc23)C1=O | 7.63

Prompt: Need pKi of `CP(C)(=O)c1c2ccc3c(c[nH]c13)-c1nc(ncc1C(F)(F)F)N[C@H]1CC[C@@H](C1)NCCOCCNC2=O` , thanks.
Completion: 7.48

====

Biological target: CDK9/Cyclin T1 (Homo sapiens (Human), UniProt P50750)
Sequence (P50750 whole entry): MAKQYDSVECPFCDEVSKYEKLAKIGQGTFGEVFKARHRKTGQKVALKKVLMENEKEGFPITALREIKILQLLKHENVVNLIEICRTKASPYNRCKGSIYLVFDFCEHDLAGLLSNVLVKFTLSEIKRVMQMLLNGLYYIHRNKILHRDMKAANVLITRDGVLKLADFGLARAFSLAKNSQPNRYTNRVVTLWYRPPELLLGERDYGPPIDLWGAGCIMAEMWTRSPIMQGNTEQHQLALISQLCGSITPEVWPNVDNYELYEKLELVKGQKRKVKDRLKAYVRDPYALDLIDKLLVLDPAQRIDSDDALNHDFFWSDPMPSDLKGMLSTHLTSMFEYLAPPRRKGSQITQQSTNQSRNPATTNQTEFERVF
Sequence (O60563 whole entry partner): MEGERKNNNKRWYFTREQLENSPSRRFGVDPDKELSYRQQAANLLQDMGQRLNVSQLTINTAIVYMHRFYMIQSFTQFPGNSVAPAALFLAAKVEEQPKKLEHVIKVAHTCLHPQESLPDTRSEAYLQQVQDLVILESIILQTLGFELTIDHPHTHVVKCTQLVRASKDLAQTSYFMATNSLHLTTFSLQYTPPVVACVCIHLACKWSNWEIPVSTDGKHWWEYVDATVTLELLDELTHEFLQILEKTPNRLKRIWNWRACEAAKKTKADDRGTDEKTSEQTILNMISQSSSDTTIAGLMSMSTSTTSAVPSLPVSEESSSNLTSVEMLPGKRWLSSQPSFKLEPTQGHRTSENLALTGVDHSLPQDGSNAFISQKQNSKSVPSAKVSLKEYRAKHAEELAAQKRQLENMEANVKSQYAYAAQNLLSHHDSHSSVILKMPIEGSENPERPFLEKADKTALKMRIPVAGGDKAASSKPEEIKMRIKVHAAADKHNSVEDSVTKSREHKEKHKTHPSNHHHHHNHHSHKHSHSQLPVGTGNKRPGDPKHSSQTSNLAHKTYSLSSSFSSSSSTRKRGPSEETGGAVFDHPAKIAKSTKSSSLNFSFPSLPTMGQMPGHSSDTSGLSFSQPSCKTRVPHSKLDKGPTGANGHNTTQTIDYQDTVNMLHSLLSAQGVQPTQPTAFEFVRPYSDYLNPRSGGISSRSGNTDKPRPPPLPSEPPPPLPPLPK
Test: In-vitro inhibition of CDK9/Cyclin T1 kinase activity (Caliper mobility shift)
Conditions: Ki calculated from IC50 under Km ATP condition (Cheng and Prusoff)
Description: […] This experiment was used for determining the inhibition of the activities of CDK2, CDK7, CDK9 and CDK12 kinases by the compound. The kinase reaction carried out by the present invention was measured in a 384-well plate, the final measured volume was 16 μl, and the reaction temperature was 27° C. The concentrations of the kinases were determined by optimization experiment. […]
Experimental Readout: pKi
Note: pKi values are expressed as the negative base-10 logarithm of concentration in M.

CN1C[C@@H](F)CCN(C)[C@H]2CC[C@@H](C2)Nc2ncc(C(F)(F)F)c(n2)-c2c[nH]c3c(P(C)(C)=O)c(ccc23)C1=O | 6.87
CP(C)(=O)c1c2ccc3c(c[nH]c13)-c1nc(ncc1C(F)(F)F)N[C@H]1CC[C@@H](C1)NCCOCCNC2=O | 6.66
O=C1NCCOCCN2CC[C@@H](C2)Nc2ncc(C(F)(F)F)c(n2)-c2c[nH]c3cc1ccc23 | 7.28
CP(C)(=O)c1c2ccc3c(c[nH]c13)-c1nc(ncc1C(F)(F)F)N[C@H]1CC[C@@H](C1)NCCCCNC2=O | 7.02

Now look at this entry.
Prompt: Need pKi of `CN1CC(F)(F)CCN(C)[C@H]2CC[C@@H](C2)Nc2ncc(C(F)(F)F)c(n2)-c2c[nH]c3c(P(C)(C)=O)c(ccc23)C1=O` , thanks.
Completion: 6.59
